- measurement.description: Toxicity liver stage against HepG2, at 10uM
- Type: cell-based
- Parameters: test concentration 10 uM, cell line HepG2-A16-CD81EGFP
- test.context: human, HepG2-A16-CD81EGFP cells; read-out: INHIBITION
measure: cytotoxicity at 10 µM (%)
Numeric only. Scale: %

Examples from the recorded data:
INSERT INTO assay_data (compound, measure, quantitative_result) VALUES
  ('CCc1cccc(C)c1NC(=O)NCCCN(CC)S(C)(=O)=O', 'cytotoxicity at 10 µM', 4.87),
  ('CC(C)n1nc(CN2CCCC2=O)c2c1CN(C(=O)c1ccno1)C2', 'cytotoxicity at 10 µM', 3.39),
  ('Cn1nccc1C(=O)N1CCN(C(=O)C2CC2)[C@@H]2CS(=O)(=O)C[C@@H]21', 'cytotoxicity at 10 µM', 3.11),
  ('O=C1O[C@@H]2CN(Cc3ccncc3)C[C@@H]2N1CCCN1CCOCC1', 'cytotoxicity at 10 µM', -6.13),
  ('CN(C)CC(=O)N1CCC2(CCc3cc(-c4cccnc4)ccc32)CC1', 'cytotoxicity at 10 µM', 4.01);

# input # query: cytotoxicity at 10 µM of entry CN(C)c1cc(CNC(=O)c2ccc(Br)cc2F)ccn1
# output -26

# input # query: cytotoxicity at 10 µM of entry CC(C)CCN1CC2(CCN(C3CCCOC3)CC2)OC1=O (stereo unspecified)
# output 6.31

# input # query: cytotoxicity at 10 µM of entry COc1ccccc1CN1CCC2(CC1)CC(Oc1ccccn1)CO2 (stereo unspecified)
# output -1.96

# input # query: cytotoxicity at 10 µM of entry CC(C)NC(=O)CN1CCC2(CC1)OCCO2
# output -8.67

# input # query: cytotoxicity at 10 µM of entry Cc1nc(CO[C@@H]2CN(Cc3nccs3)[C@@H]3COC[C@@H]32)cs1
# output -3.03

# input # query: cytotoxicity at 10 µM of entry COCCN1C(=O)CCC12CCCN(C(=O)NC(C)C)CC2 (stereo unspecified)
# output 1.32

---

- measurement.description: Toxicity liver stage against HepG2, at 10uM
- Assay type: cell-based
- Parameters: test concentration 10 uM, cell line HepG2-A16-CD81EGFP
- test.context: human, HepG2-A16-CD81EGFP cells; read-out: INHIBITION
// reported cytotoxicity at 10 µM per item
Numeric only. Scale: %

# input # query: cytotoxicity at 10 µM of entry COc1ccccc1NCC(=O)Nc1cnn(Cc2ccccn2)c1
# output -0.53

# input # query: cytotoxicity at 10 µM of entry CC(C)(C)c1noc(CN2CCCc3cc(OC(F)(F)F)ccc32)n1
# output -0.813

# input # query: cytotoxicity at 10 µM of entry COc1ccccc1OC1CCN(c2ccncc2)CC1
# output 3.33

---

// reported cytotoxicity at 10 µM per item
- measurement.description: Toxicity liver stage against HepG2, at 10uM
- Type: cell-based
- Set-up: test concentration 10 uM, cell line HepG2-A16-CD81EGFP
- test.context: human, HepG2-A16-CD81EGFP cells; read-out: INHIBITION
Numeric only. Scale: %

INSERT INTO results (compound, units_text, quantitative_result) VALUES
  ('Cc1nc(C)n(CC2CCCN2Cc2nc(-c3ccoc3)no2)n1 (stereo unspecified)', '%', -8.48),
  ('COc1cc(N2CCC3(CCN(Cc4csc(C)n4)C3)CC2)ncn1', '%', -118);

# input # query: cytotoxicity at 10 µM of entry CC(=O)N1CCC(Cc2nccnc2-c2ccnn2C)CC1
# output -7.3

# input # query: cytotoxicity at 10 µM of entry COc1ccc(Cl)cc1NC(=O)N1CCc2nc(NC(C)=O)sc2C1
# output 12.1

# input # query: cytotoxicity at 10 µM of entry CN1CCC(N(C)CCC(=O)N2CCC(OCc3ccccc3)CC2)C1 (stereo unspecified)
# output -6.35

# input # query: cytotoxicity at 10 µM of entry N#CCCN(Cc1ccco1)C(=O)CCCNC(=O)c1ccccc1
# output 8.15

# input # query: cytotoxicity at 10 µM of entry O=C(NC1CCC1)[C@H]1C[C@H]2NCCO[C@@H]2C1
# output -131

# input # query: cytotoxicity at 10 µM of entry CCN1CCNC(=O)C12CCN(S(=O)(=O)c1ccc(OC)cc1)CC2
# output 0.699
